Source listed as patent US20210363269A1.

Target: T1, human SIRPγ isoform 1 (human, UniProt Q9P1W8 29-147)
T1 construct: also called SIRPg; sirpg
T1 sequence (Q9P1W8 29-147 limits assumed): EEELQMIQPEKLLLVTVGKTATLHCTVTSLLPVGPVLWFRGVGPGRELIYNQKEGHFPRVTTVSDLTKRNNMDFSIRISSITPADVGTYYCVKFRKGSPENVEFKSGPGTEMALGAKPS
Assay: SPR, Langmuir fit
property: koff

S28 (scFv, V domains shown, also called clone 28) VH: DVQLVESGGGVVRPGESLRLSCAASGFSFSSNAMSWVRQAPGKGLEWVAGISASGDTYYSGSMKGRFTISRDNSKNTLYLQMNSLTAEDTAVYYCARETWNHLFDYWGLGTLVTVSS VL: ALTQPASVSANPGETVKITCSGGSDSYYYGWHQQKSPGSAPVTVIYSDDQRPPDIPSRFSGSASGSTTTLTITGVRAEDEAVYYCGGYDYSTYTNTFGAGTTLTVL yielded koff of 3.27e-05 s⁻¹

S73 (scFv, V domains shown, also called clone 73) VH: DVQLVESGGGVVRPGESLRLSCEASGFTFSSNAMSWARQAPGKGLEWVAGISSGSDTYYGDSVKGRLTISRDNSKNILYLQMNSLTAEDTAVYYCARETWNHLFDYWGLGTLVTVSS VL: ALTQPASVSANPGETVKITCSGGIYSSYYYAWYQQKSPGSAPVTLIYSDDKRPSNIPSRFSGSASGSTATLTITGVRAEDEAVYFCGGYDQSSYTNPFGAGTTLTVL yielded koff of 7.3e-05 s⁻¹

S74 (scFv, V domains shown, also called clone 74) VH: DVQLVESGGGVVRPGESLRLSCAASGFTFSSNAMSWVRQAPGKGLEWLAGISAGDSDTYYPASVKGRFTISRDNPKNTLYLQMNTLTAEDTAVYYCARETWNHLFDYWGLGTLVTVSS VL: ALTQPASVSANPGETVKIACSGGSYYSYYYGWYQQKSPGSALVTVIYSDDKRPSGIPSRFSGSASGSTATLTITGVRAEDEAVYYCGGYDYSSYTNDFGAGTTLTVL yielded koff of 0.000225 s⁻¹
